Just for reference, the supplement of paper PMC10307832 is where these values come from.

The compounds listed here are annotated with their relative viability.
test system: NCI-H2342; assay: relative viability (nuclei count vs DMSO), 5 days (fraction); higher = more cells survive; settings: first compound 0.1 µM
PROPERTY_LABEL: relative viability

>>> obs_value("NC(=O)Nc1cc(-c2cccc(F)c2)sc1C(=O)N[C@H]1CCCNC1 [AZD7762] + COc1cccc2cc(-c3nc([C@H]4CC[C@H](C(=O)O)CC4)n4ncnc(N)c34)[nH]c12 [OSI-027] (partner 0.5 µM)")
0.611
>>> obs_value("NC(=O)Nc1cc(-c2cccc(F)c2)sc1C(=O)N[C@H]1CCCNC1 [AZD7762] + COc1cc2c(Oc3ccc(NC(=O)C4(C(=O)Nc5ccc(F)cc5)CC4)cc3F)ccnc2cc1OCCCN1CCOCC1 [Foretinib] (partner 0.25 µM)")
1.09
>>> obs_value("NC(=O)Nc1cc(-c2cccc(F)c2)sc1C(=O)N[C@H]1CCCNC1 [AZD7762] + CC(=O)c1c(C)c2cnc(Nc3ccc(N4CCNCC4)cn3)nc2n(C2CCCC2)c1=O [Palbociclib] (partner 0.5 µM)")
0.447
>>> obs_value("NC(=O)Nc1cc(-c2cccc(F)c2)sc1C(=O)N[C@H]1CCCNC1 [AZD7762] + N=C(N)NC(=N)NCCc1ccccc1 [Phenformin] (partner 250 µM)")
0.72
